Molecular target: T1, human Ig1,2 TrkA (recombinant D4-D5 domain of human TrkA receptor) (human, UniProt P04629 191-392)
T1 construct: also called hTrkA Ig1,2; TrkA Ig1,2
T1 chain: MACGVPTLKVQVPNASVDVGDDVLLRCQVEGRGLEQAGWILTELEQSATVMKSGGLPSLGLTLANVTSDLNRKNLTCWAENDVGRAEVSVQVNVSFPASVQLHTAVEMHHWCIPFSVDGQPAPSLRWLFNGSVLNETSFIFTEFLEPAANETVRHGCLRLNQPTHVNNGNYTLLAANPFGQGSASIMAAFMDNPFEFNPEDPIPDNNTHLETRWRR
Experiment: SPR (Biacore X-100); scFv immobilised on CM5 chip, human Ig1,2 TrkA injected
measuredAttribute: kon (M⁻¹ s⁻¹)
Entry rule: numbers only, all in M⁻¹ s⁻¹.

Illustrative cases are given below, each with its answer.
{"binder": "anti-TrkA scFv CRB0082 (scFv, From hSPLINT_09 selection) scFv: SYVLTQPPSVSVAPGTTARLSCEATKIGSQRLHWYQQKPGQAPVMVISFDSDRPSGIPDRFSGSRSGNTATLTISGVEAGDEADYYCNSRDSSGYHLVFGGGTKLTVLSGGSTSGSGKPGSGEGSSGTQVQLQQSGPGLVKPSQTLSLTCAISGDSVSSFTVAWNWIRQSPSRGLERLGRTYRRSKDYAEYMRSRLTINADTSKNQLSLQLDSVTPDDTAVYYCARGQNSAFDLWGQRTMVTVSS", "kon, M⁻¹ s⁻¹": 2090}
{"binder": "anti-TrkA scFv CRB0089 (scFv, From hSPLINT_09 selection) scFv: QTVVTQEPSVSGAPGQRVTISCTGSSSIIGAGYEVHWYQHLPGTAPKLLIYDSINRPSGVPDRFSGSKSGTSASLAITGLQAEDEADYYCQSSAIFGGGTKLTVLSGGSTSGSGKPGSGEGSSGTQVQLQESGPGLVKPSQTLSLTCAISGDSVSSNSAAWNWIRQSPSRGLEWLGRTFHRSRWYNEYPVSVRSRITINPDTSNNQFTLQLNSVTPDDTAVYYCARAPVAGLTFDIWGQGTMVTVSS", "kon, M⁻¹ s⁻¹": 4600}

Q) // lookup kon for anti-TrkA scFv CRB0069 (scFv, From hSPLINT_09 selection) scFv: QPGLTQPPSASGTPGQRVTISCTGSSSNVGAGYTVHWYQQLPGTAPTLLIYDNNNRPSGVPDRFSGSRSGTSASLAITGLRAEDEADYYCQSYDRSRVYVFGTGTKLTVLSGGSTSGSGKPGSGEGSSGTQVQLQQSGPGLVKPSQTLSLTCAISGDSVSSNSAAWNWIRQSPSRGLERLGRTYYRSKWYNDYAESVKSRIIINSGTSKNQFSLHLNSVTPEDTAVYYCGRAKDGWYDAFDIWGQGTTVTVSS
A) 6270
